# test.method.notes: Liver microsomal stability, dog
# Type: in vitro ADME
# test.context: pooled liver microsomes, pH 7.4, 3 μM compound, 0.5 mg/mL protein, read-out: Liver Microsomal Stability t1/2
Listed compounds paired with reported half-life at 3 μM
Could you give me the number in h? Just the number is fine.

Examples from the recorded data:
{"smiles.input": "CS(=O)(=O)CCCn1c(CN2C(=O)C(F)(F)c3ccccc32)nc2cc(Cl)ccc21", "reported.result": 1.05}
{"smiles.input": "CCS(=O)(=O)N1CCC(n2c(CN3C(=O)C(F)(F)c4ccccc43)nc3cc(Cl)ccc32)CC1", "reported.result": 1.97}
{"smiles.input": "O=C1N(Cc2nc3cc(Cl)ccc3n2C2CCOCC2)c2ccccc2C1(F)F", "reported.result": 0.207}

# input for lookup
Tell me the measured half-life at 3 μM of `CC(C)CCn1c(CN2C(=O)C(F)(F)c3ccccc32)nc2cc(CN)ccc21` , please. 154

###

# test.method.notes: Liver microsomal stability, human
# Assay type: in vitro ADME
# test.context: pooled liver microsomes, pH 7.4, 3 μM compound, 0.5 mg/mL protein, read-out: Liver Microsomal Stability t1/2
Listed compounds paired with reported half-life at 3 μM
Could you give me the number in h? Just the number is fine.

{"compound": "CS(=O)(=O)CCCn1c(CN2C(=O)C(F)(F)c3ccccc32)nc2cc(Cl)ccc21 [Compound 5]", "reported.result": 54.7}
{"compound": "CCS(=O)(=O)N1CCC(n2c(CN3C(=O)C(F)(F)c4ccccc43)nc3cc(Cl)ccc32)CC1 [Compound 9]", "reported.result": 1.5}
{"compound": "O=C1N(Cc2nc3cc(Cl)ccc3n2C2CCOCC2)c2ccccc2C1(F)F [Compound 10]", "reported.result": 1.12}

Tell me the measured half-life at 3 μM of CC(C)CCn1c(CN2C(=O)C(F)(F)c3ccccc32)nc2cc(CN)ccc21 [Compound 13] , please. 6.1

###

# System: RSV A2, 0709161v
# test.method.notes: RSV plaque reduction assay, alternative conditions (Hep G2 cells)
# Assay type: cell-based
# test.context: human respiratory syncytial virus, HepG2, mean of at least 2 independent experiments, read-out: RSV Plaque Reduction Assay Strain A2 IC50
Listed molecules paired with reported pIC50
pIC50 field: float, defined as -log10 of concentration (mol/L).

Examples from the recorded data:
{"smiles.input": "CC(C)CCn1c(CN2C(=O)C(F)(F)c3ccccc32)nc2cc(CN)ccc21", "result.type": "pIC50", "reported.result": 8.39}
{"smiles.input": "CCS(=O)(=O)N1CCC(n2c(CN3C(=O)C(F)(F)c4ccccc43)nc3cc(Cl)ccc32)CC1", "result.type": "pIC50", "reported.result": 7.90}

Tell me the measured pIC50 of `CS(=O)(=O)N1CCC(n2c(CN3C(=O)C(F)(F)c4ccccc43)nc3cc(Cl)ccc32)CC1` , please. 8.46

###

# Tested on: MDR1
# test.method.notes: in vitro
# Type: in vitro ADME
# test.context: dog, MDCK-MDR1
result.type: Papp B→A at 60 min, 10 μM (×10⁻⁶ cm/s)
Could you give me the number in ×10⁻⁶ cm/s? Just the number is fine.

Examples from the recorded data:
{"compound": "CS(=O)(=O)CCCn1c(CN2C(=O)C(F)(F)c3ccccc32)nc2cc(Cl)ccc21 [Compound 5]", "reported.result": 14.5}
{"compound": "CC(C)CCn1c(CN2C(=O)C(F)(F)c3ccccc32)nc2cc(CN)ccc21 [Compound 13]", "reported.result": 57.1}
{"compound": "O=C1N(Cc2nc3cc(Cl)ccc3n2C2CCOCC2)c2ccccc2C1(F)F [Compound 10]", "reported.result": 34.4}

# input for lookup
Tell me the measured Papp B→A at 60 min, 10 μM of CCS(=O)(=O)N1CCC(n2c(CN3C(=O)C(F)(F)c4ccccc43)nc3cc(Cl)ccc32)CC1 [Compound 9] , please. 18.3

###

Listed compounds paired with reported half-life at 3 μM
# test.method.notes: Liver microsomal stability, rat
# Format: in vitro ADME
# test.context: pooled liver microsomes, pH 7.4, 3 μM compound, 0.5 mg/mL protein, read-out: Liver Microsomal Stability t1/2
# Method: Microsomal incubation: Experimental Procedure Pooled liver microsomes are purchased from a reputable commercial supplier and stored at −80° C. prior to use. […] Following protein precipitation, the sample supernatants are combined in cassettes of up to 4 compounds, internal standard is added and samples analysed by LC-MS/MS. From a plot of In peak area ratio (compound peak area/internal standard peak area) against time, the gradient of the line is determined. […]
Could you give me the number in min? Just the number is fine.

Examples from the recorded data:
{"compound": "O=C1N(Cc2nc3cc(Cl)ccc3n2C2CCOCC2)c2ccccc2C1(F)F [Compound 10]", "result.type": "half-life at 3 μM", "reported.result": 18.2}
{"compound": "CS(=O)(=O)CCCn1c(CN2C(=O)C(F)(F)c3ccccc32)nc2cc(Cl)ccc21 [Compound 5]", "result.type": "half-life at 3 μM", "reported.result": 21.3}
{"compound": "CC(C)CCn1c(CN2C(=O)C(F)(F)c3ccccc32)nc2cc(CN)ccc21 [Compound 13]", "result.type": "half-life at 3 μM", "reported.result": 16.9}

Tell me the measured half-life at 3 μM of CCS(=O)(=O)N1CCC(n2c(CN3C(=O)C(F)(F)c4ccccc43)nc3cc(Cl)ccc32)CC1 [Compound 9] , please. 22.6

###

# Test system: MDR1
# test.method.notes: in vitro
# Format: in vitro ADME
# test.context: dog, MDCK-MDR1
Listed compounds paired with reported Papp A→B at 60 min, 10 μM
Could you give me the number in ×10⁻⁶ cm/s? Just the number is fine.

Examples from the recorded data:
{"smiles.input": "CCS(=O)(=O)N1CCC(n2c(CN3C(=O)C(F)(F)c4ccccc43)nc3cc(Cl)ccc32)CC1", "target.or.test.system": "MDR1", "reported.result": 10.4}
{"smiles.input": "CC(C)CCn1c(CN2C(=O)C(F)(F)c3ccccc32)nc2cc(CN)ccc21", "target.or.test.system": "MDR1", "reported.result": 0.84}
{"smiles.input": "CS(=O)(=O)CCCn1c(CN2C(=O)C(F)(F)c3ccccc32)nc2cc(Cl)ccc21", "target.or.test.system": "MDR1", "reported.result": 0.21}

# input for lookup
Tell me the measured Papp A→B at 60 min, 10 μM of `O=C1N(Cc2nc3cc(Cl)ccc3n2C2CCOCC2)c2ccccc2C1(F)F` , please. 19.8

###

# Tested on: RSV fusion (HEK293T cells transfected with pCDNA3.1_A2_F)
# test.method.notes: RSV fusion assay
# Type: cell-based
# test.context: human respiratory syncytial virus, HEK-293T, read-out: RSV Fusion Assay (n ≥ 2) IC50
result.type: pIC50
pIC50 field: float, defined as -log10 of concentration (mol/L).

Tell me the measured pIC50 of `CS(=O)(=O)CCCn1c(CN2C(=O)C(F)(F)c3ccccc32)nc2cc(Cl)ccc21` , please. 8.41

Tell me the measured pIC50 of `CC(C)CCn1c(CN2C(=O)C(F)(F)c3ccccc32)nc2cc(CN)ccc21` , please. 8.59

Tell me the measured pIC50 of `CS(=O)(=O)N1CCC(n2c(CN3C(=O)C(F)(F)c4ccccc43)nc3cc(Cl)ccc32)CC1` , please. 8.77

Tell me the measured pIC50 of `CS(=O)(=O)N1CCN(CCCn2c(CN3C(=O)C(F)(F)c4ccccc43)nc3cc(Cl)ccc32)CC1` , please. 7.80

Tell me the measured pIC50 of `CCS(=O)(=O)N1CCC(n2c(CN3C(=O)C(F)(F)c4ccccc43)nc3cc(Cl)ccc32)CC1` , please. 8.66

Tell me the measured pIC50 of `O=C1N(Cc2nc3cc(Cl)ccc3n2C2CCOCC2)c2ccccc2C1(F)F` , please. 7.77
